# assay_system: human glucagon receptor (human, UniProt P47871 26-477)
# Sequence (P47871 26-477): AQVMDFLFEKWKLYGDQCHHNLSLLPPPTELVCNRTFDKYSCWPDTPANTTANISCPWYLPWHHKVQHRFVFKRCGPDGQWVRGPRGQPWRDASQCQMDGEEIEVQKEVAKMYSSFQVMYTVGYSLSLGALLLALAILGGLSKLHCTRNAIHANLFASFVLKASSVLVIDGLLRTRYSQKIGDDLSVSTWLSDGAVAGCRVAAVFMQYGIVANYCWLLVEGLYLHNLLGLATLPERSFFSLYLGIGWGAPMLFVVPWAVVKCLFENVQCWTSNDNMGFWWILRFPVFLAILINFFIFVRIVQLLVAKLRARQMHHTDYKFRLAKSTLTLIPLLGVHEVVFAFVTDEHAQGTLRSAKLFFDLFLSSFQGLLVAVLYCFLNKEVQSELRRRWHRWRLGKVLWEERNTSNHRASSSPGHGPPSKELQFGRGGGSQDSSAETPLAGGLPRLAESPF
# assay_overview: cell-based or functional assay
Numbered stars: 1 amine (or outer) side, 2 acyl side, 3 side chain; on linkers, the order of the positions; unused ones are H or OH. Square brackets hold non-standard residues; d marks the D form. Side chains are listed from the residue outwards. Ends that are not written are not given here. γGlu = O=C(O)[C@H](CCC(=O)[*:2])N[*:1]; X70 = not defined here; x53 = not defined here; Aib = CC(C)(N)C(=O)O
Consider the cut-off 7 pM. If the recorded EC50 hGlucagon-R (cAMP) is strictly smaller, the label is yes; if not, the label is no.

• HXQGTFTSDLSKQKDSRRAQDFIEWLKNGGPSSGAPPPS (dSer at 2; K(γE-x53) at 14; C-terminal NH2) [SEQ ID NO: 97] = yes
• HXQGTFTSDLSKQKESRRAQDFIEWLKAGGPSSGAPPPS (dSer at 2; K(Ac) at 14; C-terminal NH2) [SEQ ID NO: 194] = no
• HXQGTFTSDLSKQKESRRAXDFIEWLKAGGPSSGAPPPS (dSer at 2; K(γE-x53) at 14; Aib at 20; C-terminal NH2) [SEQ ID NO: 75] = no
• HXQGTFTSDLSKQMESKAAQDFIEWLKAGGPSSGAPPPS (dSer at 2; C-terminal NH2) [SEQ ID NO: 189] = no
• HXQGTFTSDLSKQMDSRRAQDFIEWLKXGGPSSGAPPPS (dSer at 2; Aib at 28; C-terminal NH2) [SEQ ID NO: 187] = no

# strict comparison: is reported EC50 hGlucagon-R (cAMP) < 7 pM? input = HXQGTFTSDLSKQMESRRAXDFIEWLKAGGPSSGAPPPS (dSer at 2; Aib at 20; C-terminal NH2) [SEQ ID NO: 190]
no

In the record for HXQGTFTSDLSKQLDEEAARLFIEWLKAGGPSSGAPPPS (Aib at 2; C-terminal NH2) [SEQ ID NO: 224] , is EC50 hGlucagon-R (cAMP) less than 7 pM?
no

Consider the binder HXQGTFTSDLSKQMDSRRAQDFIEWLKAGGPSSGAPPPS (dSer at 2; C-terminal NH2) [SEQ ID NO: 188] . Is its EC50 hGlucagon-R (cAMP) strictly less than 7 pM?
no

Hi there! Is EC50 hGlucagon-R (cAMP) for HXQGTFTSDLSKQKDSRRAQDFIEWLKXGGPSSGAPPPS (dSer at 2; K(γE-x53) at 14; Aib at 28; C-terminal NH2) [SEQ ID NO: 78] below 7 pM, do you know?
yes

Strictly below 7 pM: is that where EC50 hGlucagon-R (cAMP) of H[Aib]QGTFTSDLSKQK([γGlu-X70])DEEAARLFIEWLKAGGPSSGAPPPS-NH2 (reading uncertain) [SEQ ID NO: 216] sits?
no

In plain terms, does H[Aib]QGTFTSDLSKQK([γGlu-x53])DSRRAQDFIEWLKNGGPSSGAPPPS-NH2 (reading uncertain) [SEQ ID NO: 115] come in under 7 pM for EC50 hGlucagon-R (cAMP)?
yes
